- Assayed Target: sGC α1/β1 heterodimer (Homo sapiens (Human), UniProt Q02108+Q02153)
- Sequence (Q02108 whole entry): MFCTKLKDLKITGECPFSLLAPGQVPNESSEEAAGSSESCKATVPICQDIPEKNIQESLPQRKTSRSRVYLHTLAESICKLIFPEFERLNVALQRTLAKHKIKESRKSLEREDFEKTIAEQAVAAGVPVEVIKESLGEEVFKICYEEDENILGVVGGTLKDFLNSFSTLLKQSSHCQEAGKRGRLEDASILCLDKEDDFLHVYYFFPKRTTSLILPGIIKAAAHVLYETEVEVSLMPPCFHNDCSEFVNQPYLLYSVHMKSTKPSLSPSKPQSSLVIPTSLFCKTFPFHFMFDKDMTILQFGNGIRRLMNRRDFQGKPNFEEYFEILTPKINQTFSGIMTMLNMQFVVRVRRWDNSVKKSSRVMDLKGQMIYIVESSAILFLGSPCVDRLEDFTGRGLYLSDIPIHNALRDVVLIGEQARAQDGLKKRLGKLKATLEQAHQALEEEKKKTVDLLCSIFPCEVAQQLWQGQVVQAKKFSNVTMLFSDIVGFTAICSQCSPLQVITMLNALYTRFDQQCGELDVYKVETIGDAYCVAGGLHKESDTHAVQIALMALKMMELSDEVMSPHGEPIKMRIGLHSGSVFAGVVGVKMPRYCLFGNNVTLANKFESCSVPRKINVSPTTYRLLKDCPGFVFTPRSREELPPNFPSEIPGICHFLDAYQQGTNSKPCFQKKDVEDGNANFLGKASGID
- Sequence (Q02153 whole entry): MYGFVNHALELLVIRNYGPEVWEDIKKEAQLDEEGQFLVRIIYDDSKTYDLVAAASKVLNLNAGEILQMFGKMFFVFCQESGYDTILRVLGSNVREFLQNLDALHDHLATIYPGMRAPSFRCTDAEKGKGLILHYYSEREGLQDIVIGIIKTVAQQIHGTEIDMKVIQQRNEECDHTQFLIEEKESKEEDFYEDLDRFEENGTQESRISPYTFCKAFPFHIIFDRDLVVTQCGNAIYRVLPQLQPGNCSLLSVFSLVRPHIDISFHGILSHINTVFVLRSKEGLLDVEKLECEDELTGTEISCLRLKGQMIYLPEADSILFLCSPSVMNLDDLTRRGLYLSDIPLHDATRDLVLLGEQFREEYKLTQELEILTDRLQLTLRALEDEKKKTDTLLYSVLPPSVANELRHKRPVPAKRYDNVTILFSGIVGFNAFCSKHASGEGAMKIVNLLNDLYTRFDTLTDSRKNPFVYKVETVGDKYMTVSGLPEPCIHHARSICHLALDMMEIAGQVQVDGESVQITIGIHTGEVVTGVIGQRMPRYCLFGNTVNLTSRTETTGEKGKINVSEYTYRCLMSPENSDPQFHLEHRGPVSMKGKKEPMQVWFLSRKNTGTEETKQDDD
- Protocol Details: Cell-based sGC functional assay (CASA assay), cGMP by HTRF
- Conditions Used: inflection point of cGMP production, 4P fit; CHO-K1/sGC cells; read-out: IP
Measurement Type: EC50 (nM)

(I) CC(C)CCc1nc(-c2nc(N)c3c(n2)NC(=O)C3(C)c2cccc(O)c2)cn2ccnc12 (stereo not drawn)
(II) CC1(c2cc(O)c(C(F)(F)F)cn2)C(=O)Nc2nc(-c3cn4ccnc4c(Cc4ccccc4F)n3)nc(N)c21 (stereo not drawn)
(III) CC1(c2cc(O)c(Cl)c(F)c2)C(=O)Nc2nc(-c3cn4ccnc4c(Cc4cccc(F)c4)n3)nc(N)c21 (stereo not drawn)
// query Falling order of EC50, please. Reply format: the labels, ordered as requested.
// result II, I, III
(II: 2350 nM, I: 335 nM, III: 188 nM)
